# Test system: NCI-H226
# measurementDescription: NCI tumour cell line growth inhibition, 48 h
The source made the active and inactive calls. Cut-off read from the data, not from the text of the source: active = GI50 up to about 1.1 µM and inactive = higher.
Possible outcomes: y for active, n for inactive

compound: COC(=O)/C=C(\C)C(=O)N(C)c1ccccc1I
assignedClass: n
//
compound: CC(C)(C)c1cc(C(=O)C2Cc3ccccc3C(=O)O2)cc(C(C)(C)C)c1O (centres undefined)
assignedClass: n
//
compound: O=C1CCCC[C@H]1C(O)CC1CC(=O)N(c2ccccc2)C(=O)C1 (some centres undefined)
assignedClass: n
//
compound: O=C(CSCC(=O)N/N=C\c1cc(Br)cc(Br)c1O)N/N=C\c1cc(Br)cc(Br)c1O
assignedClass: n
//
compound: CCCCCCCCCCCCCCC1OC(=O)c2ccccc21 (centres undefined)
assignedClass: n
//
compound: O/N=C/C1c2ccccc2-c2ccccc21
assignedClass: n
//
compound: COc1ccc(/C=C2\C(=O)N(C(=O)c3ccc(NC(C)=O)cc3)N=C2C)cc1
assignedClass: n
//
compound: COc1ccccc1CCc1cc(OC)c(OC)c(OC)c1
assignedClass: n
//
compound: COc1cccc2c1C(=O)c1c(O)c3c(c(O)c1C2=O)C[C@@](O)(C(=O)CO)C[C@@H]3OC1CC2C(OCN3CN2COC2C(C)OC(O[C@H]4C[C@](O)(C(=O)CO)Cc5c(O)c6c(c(O)c54)C(=O)c4c(OC)cccc4C6=O)CC23)C(C)O1 (some centres undefined)
assignedClass: y

---

# System: MDA-MB-435
# measurementDescription: NCI tumour cell line growth inhibition, 48 h
The source made the active and inactive calls. Cut-off read from the data, not from the text of the source: active = GI50 up to about 1.1 µM and inactive = higher.
Possible outcomes: 1 (active), 0 (inactive)

molecule: CCn1c(SCC(=O)NNC(=S)Nc2ccc(F)cc2)nc2ccccc2c1=O
assignedClass: 0
--
molecule: CC[C@]1(Cc2ccc(OC)c(OC)c2)C=[N+]([O-])O[C@H](OC2CCCC2(c2ccccc2)c2ccccc2)[C@@H]1OC(C)=O (some centres undefined)
assignedClass: 0
--
molecule: O=C1C=C(Sc2ccccc2)c2nccc3c2c1nc1ccccc13
assignedClass: 0
--
molecule: Cc1ccc2c(c1)CC1(Cc3cc(C)ccc3C1=O)C2=O
assignedClass: 0
--
molecule: N#Cc1nc(C(=O)c2ccccc2)oc1N
assignedClass: 0
--
molecule: Cc1c(C(=O)OCc2ccccc2)[n+]([O-])c2cc(Cl)c(Cl)cc2[n+]1[O-]
assignedClass: 0
--
molecule: COC(=O)/C(=C/c1ccc(OC)cc1)c1cc(OC)c(OC)c(OC)c1
assignedClass: 1
--
molecule: N#Cc1c(-c2ccccc2)c(C#N)c(=S)n(C2OCC(O)C(O)C2O)c1N (centres undefined)
assignedClass: 0
--
molecule: O=C1CC2(CCCc3sccc32)C(=O)N1 (centres undefined)
assignedClass: 0

---

# GI50 per entry
# System: Malme-3M
# measurementDescription: NCI tumour cell line growth inhibition, 48 h
Active and inactive are the calls of the source. Cut-off read from the data, not from the text of the source: active = GI50 up to about 1.1 µM and inactive = higher.
parameter: GI50

molecule: CCC(=O)OCN1C(=O)C=CC1=O
result: 13.8 µM (inactive)
--
molecule: CCC(=O)NC(NNS(=O)(=O)c1ccc(C)cc1)(C(F)(F)F)C(F)(F)F
result: 59.4 µM (inactive)
--
molecule: CC(=O)OCC1OC(n2c(S)nc(-c3ccccc3)c(C#N)c2=O)C(OC(C)=O)C(OC(C)=O)C1OC(C)=O (stereo not given)
result: > 100 µM (inactive)
--
molecule: Cc1ccc(C#CS(=O)(=O)C(F)(F)F)cc1
result: > 100 µM (inactive)
--
molecule: CC(=O)/C(=C\c1ccccc1O)C(=O)Nc1ccccc1C
result: 17.5 µM (inactive)

---

# Test system: HOP-92
# measurementDescription: NCI tumour cell line growth inhibition, 48 h
Activity calls are given as the source filed them. Rule as the data show it: active = GI50 up to about 1.1 µM and inactive = higher.
Possible outcomes: t (active), f (inactive)

molecule: COc1cc(COC(=O)N2CC=CC2C(=O)O)c([N+](=O)[O-])cc1OC (centres undefined)
assignedClass: f
//
molecule: C/C(=N/S(=O)(=O)c1ccc(Cl)c(Cl)c1)OCC(C)(C)C
assignedClass: f
//
molecule: C[C@]12CC/C(=N\O)C=C1CC[C@@H]1[C@@H]2CC[C@]2(C)C(=N/O)/C(=C/c3cccnc3)C[C@@H]12
assignedClass: f
//
molecule: O=c1c(Cc2ccc(Cl)cc2)nnc2sc(-c3ccc(-c4ccc(Cl)cc4Cl)o3)nn12
assignedClass: f
//
molecule: N=c1oc2ccc(Cl)cc2cc1C(=O)NCc1ccccc1
assignedClass: f
//
molecule: CN(C)c1ccc(C2CC(=O)CC(c3ccc(N(C)C)cc3)C23C(=O)NC(=O)NC3=O)cc1 (centres undefined)
assignedClass: f
//
molecule: NC(=O)c1ccc(NS(=O)(=O)c2ccc(N)cc2)nc1
assignedClass: f
//
molecule: COc1ccc2[nH]c3c(C)c4ccncc4c(C)c3c2c1
assignedClass: t
//
molecule: N#CCCC(CCC#N)(CCC#N)NO
assignedClass: f
//
molecule: COc1cc2c(cc1O)[C@H](C)C(c1ccc(OC)c(OC)c1)O2 (some centres undefined)
assignedClass: f
//
molecule: O=S1(=O)CCCS(=O)(=O)C(c2ccccc2)=C1c1ccccc1
assignedClass: f
//
molecule: O=C(O/N=C1/CCC/C1=C\c1ccccc1)c1ccc([N+](=O)[O-])cc1
assignedClass: f
//
molecule: O=c1c2cc(S(=O)(=O)Nc3ccc(Cl)cc3Cl)ccc2ncn1NS(=O)(=O)c1cccc2ccccc12
assignedClass: f
//
molecule: CSc1nc(Br)nc2c1ncn2C1CC(Oc2ccc(C)cc2)C(COc2ccc(C)cc2)O1 (centres undefined)
assignedClass: f
//
molecule: O=C1CCCC[C@H]1C(O)CC1CC(=O)N(c2ccccc2)C(=O)C1 (some centres undefined)
assignedClass: f
//
molecule: Clc1ccc(SC(/C=C/NNC2=NN=C(c3ccccc3)C(c3ccccc3)N2)c2ccccc2)cc1 (centres undefined)
assignedClass: f
//
molecule: COC(=O)C1=C(O)c2ccc(Cl)cc2S(=O)(=O)N1C
assignedClass: f
//
molecule: N#CCSc1c(-c2ccccc2)c(=O)n(-c2ccccc2)c(=S)n1-c1ccccc1
assignedClass: f
//
molecule: C=C1C(=O)O[C@H]2[C@H]1CC(=O)/C(C)=C/CC[C@@]1(C)O[C@@H]21
assignedClass: t
//
molecule: Cc1ccc(N2C(=O)C(Cl)=C(Cl)C2=O)cc1
assignedClass: f
//
molecule: OC(O)(C(F)(F)F)C(F)(F)F
assignedClass: f
//
molecule: N#Cc1nc(C(=O)c2ccccc2)oc1N
assignedClass: f
//
molecule: COC(=O)/C(=C/c1ccc(OC)cc1)c1cc(OC)c(OC)c(OC)c1
assignedClass: f
//
molecule: CC(C)(C)C1=C(Br)C(Br)(C(C)(C)C)OP1(=O)c1ccccc1 (centres undefined)
assignedClass: f
//
molecule: CCOP(=O)(CCCC(O)CNc1cc(Cl)nc(N)n1)OCC (centres undefined)
assignedClass: f
//
molecule: O=C1C=C(Sc2ccccc2)c2nccc3c2c1nc1ccccc13
assignedClass: f
//
molecule: CC(C)SC(NC(=O)C1C(C)(C)CCC1(C)C)C(=O)O (centres undefined)
assignedClass: f
//
molecule: O=C1CC2(CCCc3sccc32)C(=O)N1 (centres undefined)
assignedClass: f
//
molecule: O=C(O)c1ccc(Nc2c3ccccc3nc3ccccc23)cc1
assignedClass: f
//
molecule: CC(C)(C)/N=c1/n(C(C)(C)C)oc(=O)n1C(C)(C)C
assignedClass: f
//
molecule: Cc1[nH]c(-c2ccccc2)c(-c2ccc(Cl)cc2)c1C(=O)ONC(=O)c1ccccc1
assignedClass: f
//
molecule: C[C@]12CCc3nonc3C1CC[C@@H]1C2CC[C@]2(C)C(=O)/C(=N\O)CC12 (some centres undefined)
assignedClass: f
//
molecule: CC(=O)c1c(C(F)(F)F)[n+]([O-])c2cc(Cl)c(Cl)cc2[n+]1[O-]
assignedClass: t
//
molecule: COC(=O)c1c2c(cc3c1CC1(Cc4cc5c(c(C(C)=O)c4C1)CCC5)C3)CCC2 (centres undefined)
assignedClass: f

---

# Tested on: IGROV-1
# measurementDescription: NCI tumour cell line growth inhibition, 48 h
Active and inactive are the calls of the source. Cut-off read from the data, not from the text of the source: active = GI50 up to about 1.1 µM and inactive = higher.
Possible outcomes: active, inactive

molecule: COc1ccc(-c2ccccc2)c2[nH]c3c(c12)CCNC3=O
measuredOn: IGROV-1
assignedClass: inactive

molecule: CC(=O)O[C@H]1C(=O)[C@@]2(C)[C@H]([C@H](OC(=O)c3ccccc3)[C@]3(O)C[C@H](OC(=O)[C@H](OC(=O)OCCC(O)CO)[C@@H](NC(=O)c4ccccc4)c4ccccc4)C(C)=C1C3(C)C)[C@]1(OC(C)=O)CO[C@@H]1C[C@@H]2O (stereo partly specified)
measuredOn: IGROV-1
assignedClass: active

molecule: O=C1CC2C=CC1C2CO (stereo unspecified)
measuredOn: IGROV-1
assignedClass: inactive

molecule: C=C1C(=O)O[C@H]2[C@H]1CC(=O)/C(C)=C/CC[C@@]1(C)O[C@@H]21
measuredOn: IGROV-1
assignedClass: inactive

molecule: Nc1ncnc2c(C3OC(CO)C(O)C3O)c[nH]c12 (stereo unspecified)
measuredOn: IGROV-1
assignedClass: active

molecule: CCC1OC2C(CC=C(C)C)=C3OC(C)(O)C(C)(CC)C(OC(C)=O)C3=C3OC(=O)C=C1C32 (stereo unspecified)
measuredOn: IGROV-1
assignedClass: inactive

molecule: N#CC1=C(Cl)NC(Cl)=C(C#N)C1c1c(Cl)cccc1Cl
measuredOn: IGROV-1
assignedClass: inactive

molecule: CC(=O)NC1=CC(=O)c2cc(C)cc(O)c2C1=O
measuredOn: IGROV-1
assignedClass: inactive

molecule: CN1CC[C@]2(C)c3c(O)cccc3CC3CCCC1C32C (stereo partly specified)
measuredOn: IGROV-1
assignedClass: inactive

molecule: O=C(O)C1CC(O)CN1 (stereo unspecified)
measuredOn: IGROV-1
assignedClass: inactive

molecule: N=C(N)c1ccc(/N=N\c2c(O)ccc3cc4c(/N=N\c5ccc(C(=N)N)cc5)c(O)ccc4cc23)cc1
measuredOn: IGROV-1
assignedClass: inactive

molecule: Cc1cc(Cl)ccc1N1C(=O)C(=O)C(c2nc3ccccc3s2)C(=O)C1=O
measuredOn: IGROV-1
assignedClass: inactive

molecule: O=C(O)C1CCc2nnc(-c3ccccc3)n21 (stereo unspecified)
measuredOn: IGROV-1
assignedClass: inactive

molecule: O=C1OCC(c2ccc(Cl)cc2)=C1Cl
measuredOn: IGROV-1
assignedClass: active

molecule: Cc1c(NC(=S)NC(=O)c2ccc([N+](=O)[O-])cc2)c(=O)n(-c2ccccc2)n1C
measuredOn: IGROV-1
assignedClass: inactive

molecule: N#CC(=S)Nc1ccc(Cl)c(Cl)c1
measuredOn: IGROV-1
assignedClass: inactive

molecule: O=S(=O)(Sc1ccc(Cl)cc1)c1ccc(Cl)cc1
measuredOn: IGROV-1
assignedClass: inactive

molecule: CC(=O)Nc1ccc(/C=C2/NC(=S)N(/C=C3\C(=O)Oc4ccccc4C3=O)C2=O)cc1
measuredOn: IGROV-1
assignedClass: inactive

molecule: CCOP(=O)(CN=C(c1ccccc1)c1ccccc1)OCC
measuredOn: IGROV-1
assignedClass: inactive

molecule: COC(=O)C1(O)C(c2ccccc2)NC2(C)CCCC21 (stereo unspecified)
measuredOn: IGROV-1
assignedClass: inactive

molecule: N#Cc1nc(C(=O)c2ccccc2)oc1N
measuredOn: IGROV-1
assignedClass: inactive
